target: cGMP-specific 3',5'-cyclic phosphodiesterase (Homo sapiens, UniProt O76074)
Overview of reported pIC50 across a group of molecules:
Friendly reminder that pIC50 comes from taking -log10 of the concentration in mol/L.

Consider the reported pIC50 for these molecules:
compoundStructureString	pIC50
CCN1C(=O)c2c(ncn2Cc2ccc(OC)c(Br)c2)N2C1=N[C@@H]1CCC[C@@H]12	8.19
CCN1C(=O)c2c(nc(C(N)=O)n2Cc2ccc(O)cc2)N2C1=N[C@@H]1CCC[C@@H]12	8.68
CCN1C(=O)c2c(nc(OC)n2Cc2ccc(OC)c(Br)c2)N2C[C@@H](Cc3ccccc3)N=C12	8.66
CCN1C(=O)c2c(nc(N)n2Cc2ccc(O)cc2)N2C1=N[C@@H]1CCC[C@@H]12	7.66
CCN1C(=O)c2c(nc(Cc3ccccc3)n2Cc2ccccc2)N2C1=N[C@@H]1CCC[C@@H]12	6.89

[in] Entry "CCOc1nc2c(n1Cc1ccc(O)c(Cl)c1)C(=O)N(CC)C1=N[C@@H]3CCC[C@@H]3N12" needs its pIC50 filled in; supply it.
[out] 8.68

[in] Entry "CCN1C(=O)c2c(nc(Cc3ccccc3)n2Cc2ccc3c(c2)OCO3)N2C1=N[C@@H]1CCC[C@@H]12" needs its pIC50 filled in; supply it.
[out] 7.34

[in] Entry "CCN1C(=O)c2c(nc(C#Cc3ccccc3)n2Cc2ccc(OC)cc2)N2C1=N[C@@H]1CCC[C@@H]12" needs its pIC50 filled in; supply it.
[out] 8.51

[in] Entry "CCN1C(=O)c2c(nc(Cc3ccccc3)n2Cc2ccc(N)cc2)N2C1=N[C@@H]1CCC[C@@H]12" needs its pIC50 filled in; supply it.
[out] 6.26

[in] Entry "CCN1C(=O)c2c(nc(C(N)=O)n2Cc2ccc(OC)cc2)N2C1=N[C@@H]1CCC[C@@H]12" needs its pIC50 filled in; supply it.
[out] 8.40

[in] Entry "CCN1C(=O)c2c(nc(C(F)(F)F)n2Cc2ccc(O)cc2)N2C1=N[C@@H]1CCC[C@@H]12" needs its pIC50 filled in; supply it.
[out] 8.15

[in] Entry "CCN1C(=O)c2c(nc(C(F)(F)F)n2Cc2ccc(OC)cc2)N2C1=N[C@@H]1CCC[C@@H]12" needs its pIC50 filled in; supply it.
[out] 7.32

[in] Entry "CCOc1nc2c(n1Cc1ccc(OC)c(Br)c1)C(=O)N(CC)C1=N[C@@H]3CCC[C@@H]3N12" needs its pIC50 filled in; supply it.
[out] 8.27

[in] Entry "CCN1C(=O)c2c(nc(C(N)=O)n2Cc2ccc(OC)c(Cl)c2)N2C[C@@H](Cc3ccccc3)N=C12" needs its pIC50 filled in; supply it.
[out] 8.55
